# SYSTEM UNDER TEST: T1, EsCas13d, nuclease-dead (Eubacterium siraeum, UniProt B0MS50, R295A;H300A;R849A;H854A)
# T1 sequence: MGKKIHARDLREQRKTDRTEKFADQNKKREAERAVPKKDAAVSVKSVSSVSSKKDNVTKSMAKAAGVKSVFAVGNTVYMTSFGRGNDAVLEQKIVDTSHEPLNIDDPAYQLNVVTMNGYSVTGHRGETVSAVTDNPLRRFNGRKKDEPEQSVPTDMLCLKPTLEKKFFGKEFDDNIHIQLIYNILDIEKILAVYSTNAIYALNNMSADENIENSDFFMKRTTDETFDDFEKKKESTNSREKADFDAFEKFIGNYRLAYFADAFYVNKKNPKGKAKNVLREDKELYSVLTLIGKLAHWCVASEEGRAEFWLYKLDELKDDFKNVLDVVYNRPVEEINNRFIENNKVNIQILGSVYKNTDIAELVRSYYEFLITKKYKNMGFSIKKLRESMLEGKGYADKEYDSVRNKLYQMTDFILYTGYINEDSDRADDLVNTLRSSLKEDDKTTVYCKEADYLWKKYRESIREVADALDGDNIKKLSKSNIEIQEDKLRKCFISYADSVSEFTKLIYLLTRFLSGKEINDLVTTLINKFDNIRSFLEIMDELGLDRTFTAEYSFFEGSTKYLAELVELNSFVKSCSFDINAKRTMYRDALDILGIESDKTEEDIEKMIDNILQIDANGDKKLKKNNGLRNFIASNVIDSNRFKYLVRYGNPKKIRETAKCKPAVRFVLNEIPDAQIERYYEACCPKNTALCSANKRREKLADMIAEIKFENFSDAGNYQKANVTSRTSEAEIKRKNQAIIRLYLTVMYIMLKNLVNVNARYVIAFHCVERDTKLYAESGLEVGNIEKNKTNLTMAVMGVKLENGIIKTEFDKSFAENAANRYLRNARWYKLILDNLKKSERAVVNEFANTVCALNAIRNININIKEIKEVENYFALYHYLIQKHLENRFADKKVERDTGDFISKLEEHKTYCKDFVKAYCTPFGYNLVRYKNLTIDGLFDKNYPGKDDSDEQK
# TEST: crRNA (strand 1, pre-loaded); Mg2+; 40 mM Tris-HCl pH 7.5, 150 mM NaCl, 6 mM MgCl2, 1 mM DTT, 0.1% Tween-20, 0.2 mg/ml BSA; 25 C; 10 min per concentration, then washed
# EXPERIMENTAL PARAMETERS: tags: His6-TwinStrep-SUMO cleaved; N-terminal SNAP kept (SNAP-Surface 488); label: 3' end held by stalled T7 RNA polymerase
ENDPOINT NAME: Kd

* target 3 insU 3' of 6,insC 3' of 5 (mixed) RNA 1: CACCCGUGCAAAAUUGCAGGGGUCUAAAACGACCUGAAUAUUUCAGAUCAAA RNA 2: GGGAAUGGAUCCACAUCUACGAAUUCGUUUUUGAUCUGAAAUAUUCUACGGUCUGCAGAUCGGAAGAGCACACGU | 15.4 nM
* target 1 MT 5'PFS GCC 3'PFS AAC (mixed) RNA 1: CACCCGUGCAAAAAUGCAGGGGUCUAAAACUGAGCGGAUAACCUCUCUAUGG RNA 2: GGGAAUGGAUCCACAUCUACGAAUUCGCCCCAUAGAGAGGUUAUCCGCUCAAACAGAUCGGAAGAGCACACGU | 23 nM
* target 3 C1U,U2C (mixed) RNA 1: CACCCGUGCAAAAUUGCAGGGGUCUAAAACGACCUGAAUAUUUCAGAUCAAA RNA 2: GGGAAUGGAUCCACAUCUACGAAUUCGUUUUUGAUCUGAAAUAUUCAGGCUUGCAGAUCGGAAGAGCACACGU | 54 nM

Kindly review the next binder as well.
Exercise: Query (binder): target 1 insG 3' of 11,insG 3' of 2 (mixed) RNA 1: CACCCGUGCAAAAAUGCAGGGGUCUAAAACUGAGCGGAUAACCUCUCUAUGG RNA 2: GGGAAUGGAUCCACAUCUACGAAUUCGUACCAUAGAGAGGUGUAUCCGCUCGACCGAGAUCGGAAGAGCACACGU ; field requested: Kd
Solution: 57 nM
